# measurementTarget: EP1 receptors (Homo sapiens, UniProt P34995)
# Sequence (P34995 1-402): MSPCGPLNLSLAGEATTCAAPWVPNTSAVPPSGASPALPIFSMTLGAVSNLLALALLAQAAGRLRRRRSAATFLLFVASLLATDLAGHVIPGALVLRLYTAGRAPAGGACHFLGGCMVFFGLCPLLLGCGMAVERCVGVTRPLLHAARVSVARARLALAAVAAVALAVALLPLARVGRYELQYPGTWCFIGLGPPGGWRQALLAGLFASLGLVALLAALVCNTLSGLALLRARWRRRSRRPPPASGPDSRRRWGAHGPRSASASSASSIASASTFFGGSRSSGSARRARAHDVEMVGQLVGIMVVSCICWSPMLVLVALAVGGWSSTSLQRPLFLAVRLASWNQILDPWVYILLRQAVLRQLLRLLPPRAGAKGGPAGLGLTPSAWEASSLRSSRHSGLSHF
# measurementDescription: Binding assay for the human prostanoid EP1 receptor (competition with [3H]-PGE2)
# Parameters: expressed in transfected cells; host or cells: CHO-K1 cells, membrane fraction
# appliedConditions: [3H]-PGE2 competition; averages of a number of experiments; read-out: pIC50 value, binding assay for the human prostanoid EP1 receptor (converted)
Where a name gives a salt, the structure may show the parent alone.
measurementType: IC50

Answered examples (3):
{"columns": ["compound", "IC50"],
 "data": [
  ["O=C(O)c1nc(Cc2cc(Cl)ccc2OCc2cc(F)c(F)cc2F)cs1", "≤ 31.6 nM"],
  ["Cc1nnc(-c2csc(Cc3cc(Cl)ccc3OCC(C)C)n2)[nH]1", "≤ 1000 nM"],
  ["O=C(O)c1csc(Cc2cc(C(F)(F)F)ccc2OCc2ccccc2)n1", "≤ 31.6 nM"]
]}

Q: Consider the compound shown here: CC(C)COc1ccc(Cl)cc1Cc1nc(-c2nc3ccc(CN4CCCC4)cc3[nH]2)cs1 [Example 123, hydrochloride] What is its recorded IC50?
Ans: ≤ 31.6 nM

Q: Consider the compound shown here: `CC(C)(C)OC(=O)Nc1csc(Cc2cc(Cl)ccc2OCc2ccccc2)n1` What is its recorded IC50?
Ans: ≤ 1000 nM

Q: Consider the compound shown here: `CC(C)COc1ccc(Cl)cc1Nc1nc(-c2nc3ccccc3[nH]2)cs1` What is its recorded IC50?
Ans: ≤ 31.6 nM

Q: Consider the compound shown here: CC(C)COc1ccc(Cl)cc1Cc1nc(-c2nc3ccc(CCN(C)C)cc3[nH]2)co1 [Example 166, hydrochloride] What is its recorded IC50?
Ans: ≤ 31.6 nM

Q: Consider the compound shown here: `O=C(O)c1csc(Cc2cc(Br)ccc2OCc2ccc(Br)cc2)n1` What is its recorded IC50?
Ans: ≤ 31.6 nM

----------
# measurementTarget: EP1 receptors (Homo sapiens, UniProt P34995)
# Sequence (P34995 1-402): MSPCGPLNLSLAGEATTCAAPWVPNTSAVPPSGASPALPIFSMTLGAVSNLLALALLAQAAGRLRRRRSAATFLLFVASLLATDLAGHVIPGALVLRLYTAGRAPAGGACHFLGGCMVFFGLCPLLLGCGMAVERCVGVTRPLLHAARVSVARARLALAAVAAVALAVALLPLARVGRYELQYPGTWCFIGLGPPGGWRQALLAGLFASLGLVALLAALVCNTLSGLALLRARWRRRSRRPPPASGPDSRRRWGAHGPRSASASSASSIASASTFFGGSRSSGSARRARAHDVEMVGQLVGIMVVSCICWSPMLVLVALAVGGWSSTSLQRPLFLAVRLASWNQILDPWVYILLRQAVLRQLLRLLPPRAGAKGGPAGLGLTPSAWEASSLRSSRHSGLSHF
# measurementDescription: Binding assay for the human prostanoid EP1 receptor (competition with [3H]-PGE2)
# Parameters: expressed in transfected cells; host or cells: CHO-K1 cells, membrane fraction
# appliedConditions: [3H]-PGE2 competition; averages of a number of experiments; read-out: pIC50 value, binding assay for the human prostanoid EP1 receptor (converted)
measurementType: IC50

{"columns": ["compound", "measurementTarget", "IC50"],
 "data": [
  ["CC(C)C(=O)Nc1csc(Cc2cc(Cl)ccc2OCc2ccccc2)n1 [Example 129]", "EP1 receptors (Homo sapiens, UniProt P34995)", "≤ 1000 nM"]
]}

Could you now consider this next compound?
Q: Consider the compound shown here: CCCCOc1ccc(C(F)(F)F)cc1Cc1nc(C(=O)O)cs1 [Example 38] What is its recorded IC50?
Ans: ≤ 1000 nM

Data credit: patent US20080207708A1
